# Target Entity: recombinant human MGAT2 (Homo sapiens (Human))
# Sequence (Q3SYC2 whole entry): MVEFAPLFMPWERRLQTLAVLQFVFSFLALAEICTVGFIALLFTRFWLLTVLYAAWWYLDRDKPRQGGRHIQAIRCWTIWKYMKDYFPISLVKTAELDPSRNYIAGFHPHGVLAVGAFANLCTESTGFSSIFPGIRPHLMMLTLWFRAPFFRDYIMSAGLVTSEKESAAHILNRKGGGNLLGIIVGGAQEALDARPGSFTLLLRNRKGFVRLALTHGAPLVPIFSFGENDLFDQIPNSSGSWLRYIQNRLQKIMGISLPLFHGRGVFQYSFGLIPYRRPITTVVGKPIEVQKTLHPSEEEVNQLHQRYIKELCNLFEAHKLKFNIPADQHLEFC
# Assay Text: Measurement of human MGAT2 inhibitory activity
# Format: biochemical
# Cond: read-out: IC50 (concentration exhibiting 50% enzyme inhibition), Table 52
Readout Type: IC50 (nM)

> print(dat)
                                smiles.repr                             target.entity  observed
1  CS(=O)(=O)CC(=O)Nc1c2c(nn1CCC1CC1)C[C@]1(CCc3cc(NC(=O)CC(F)(F)F)ccc31)NC2=O  recombinant human MGAT2 (Homo sapiens (Human))        67
2  CS(=O)(=O)CC(=O)Nc1c2c(nn1-c1ccc3c(c1)OC(F)(F)O3)C[C@]1(CCc3cc(OCC(F)(F)F)ccc31)NC2=O  recombinant human MGAT2 (Homo sapiens (Human))        84
3  CS(=O)(=O)CC(=O)Nc1c2c(nn1CCC1CCOCC1)C[C@]1(CCc3cc(OCC(F)(F)F)ccc31)NC2=O  recombinant human MGAT2 (Homo sapiens (Human))       120
